Assay: A549 cell viability effects, profiling panel, calcein-AM fluorescence, 48 h, basal (AID 1162); note: test concentration not given here
Settings: higher = more signal
readout: z-score
// keep it numeric: no unit symbol after the value

In the examples that follow, each entry is paired with its recorded z-score.
* CCCC=C(CCC)[C@@H](NC(=O)Oc1ccc(F)cc1)c1ccc(C(=O)OC)cc1 | -1.33
* COCCOC(=O)N1C(=O)[C@@]2(c3cc(C#Cc4ccc(OC)cc4)ccc31)[C@H](c1ccccc1OCCO)N1[C@H](c3ccccc3)[C@H](c3ccccc3)OC(=O)[C@H]1[C@@H]2C(=O)N1CCN(c2ncccn2)CC1 | 0.204
* CN1C(=O)C2C=CC(C(O)c3ccc(-c4ccccc4)s3)N(N(c3ccccc3)c3ccccc3)C2C1=O (stereo not given) | 0.281

Exercise: Report measured z-score; entry is CC(C)(C)OC(=O)CC[C@@]1(C(N)=O)N=C(c2ccc(OCCCO)cc2)O[C@@H]1c1ccccc1
Key: 0.298

Exercise: Find the measured z-score of C=CCNC(=O)[C@@H]1[C@H]2C(=O)O[C@H](c3ccccc3)[C@H](c3ccccc3)N2[C@H](c2ccc(OCCO)cc2)[C@@]12C(=O)Nc1ccc(C#CCCO)cc12 and report it.
Key: -1.11

Exercise: Give the reported value of z-score for this record: COC(=O)[C@@]1(Cc2ccccc2)[C@H]2c3cc(C(=O)N4CCCC4)n(CC4CC4)c3C[C@H]2CN1C(=O)c1ccccc1
Key: -1.46
